biological target: human CYP11B2 (Homo sapiens, UniProt P19099); assay: G-402 cellular enzyme assay, human CYP11B2 (aldosterone release, HTRF); conditions: G-402 cells, 1 μM Deoxycorticosterone
Sequence (P19099 25-503): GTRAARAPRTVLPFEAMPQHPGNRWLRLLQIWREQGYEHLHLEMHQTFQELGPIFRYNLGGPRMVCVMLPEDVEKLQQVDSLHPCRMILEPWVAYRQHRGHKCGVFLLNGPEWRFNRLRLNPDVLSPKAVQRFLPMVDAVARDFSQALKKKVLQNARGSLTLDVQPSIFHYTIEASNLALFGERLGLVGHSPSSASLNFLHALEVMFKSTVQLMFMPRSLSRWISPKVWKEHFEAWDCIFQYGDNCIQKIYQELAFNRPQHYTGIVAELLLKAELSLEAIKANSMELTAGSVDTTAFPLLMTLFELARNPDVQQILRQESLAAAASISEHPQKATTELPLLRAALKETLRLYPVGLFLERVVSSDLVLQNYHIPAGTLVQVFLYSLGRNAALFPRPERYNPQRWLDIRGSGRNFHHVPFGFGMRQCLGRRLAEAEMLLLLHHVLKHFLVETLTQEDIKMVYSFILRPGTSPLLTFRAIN
RECORDED ENDPOINT: EC50 (nM)

{"columns": ["COMPOUND", "EC50, nM"],
 "data": [
  ["O=C1c2ccc(Cl)cc2CCN1c1cncc(COCC2CC2)c1", 2450]
]}

[P] CCOC(=O)c1nccn1Cc1cncc(N2CCc3cc(Cl)ccc3C2=O)c1
[Q] CC(c1cncc(N2CCc3cc(Cl)ccc3C2=O)c1)n1cccn1 (centres unmarked)
[R] CCS(=O)(=O)NCc1cncc(N2CCc3cc(Cl)ccc3C2=O)c1
[S] CC(=O)N1CCC(c2cncc(N3C(=O)c4ccc(Cl)cc4C3(C)C)c2)CC1
Data request: Falling order of EC50, please. # format: label list in the order the request specifies
Data returned: R, P, Q, S
